Each recorded value in this set is attributed to patent US20140212487A1.

# protocol: clinical
# conditions_used: in vivo, po, 30 mg, Cmax, Geometric Least Squares Mean (GLSM), conventional formulation, fasted
assay_endpoint: Cmax
Answer with the number, then the unit.

Can you look up the measured Cmax of COC(=O)N[C@H](C(=O)N1CC2(CC2)C[C@H]1c1ncc(-c2ccc3c(c2)C(F)(F)c2cc(-c4ccc5nc([C@@H]6[C@H]7CC[C@H](C7)N6C(=O)[C@@H](NC(=O)OC)C(C)C)[nH]c5c4)ccc2-3)[nH]1)C(C)C [Ledipasvir] for me? 65.3 ng/mL

----------
# protocol: clinical
# conditions_used: in vivo, po, 30 mg, AUClast, mean, conventional formulation, 30 mg single dose, fed (high-fat meal)
assay_endpoint: AUC(0-t) (ng·h/mL)
Write the answer as a number in ng·h/mL, unit excluded.

Field request: AUC(0-t) | item: COC(=O)N[C@H](C(=O)N1CC2(CC2)C[C@H]1c1ncc(-c2ccc3c(c2)C(F)(F)c2cc(-c4ccc5nc([C@@H]6[C@H]7CC[C@H](C7)N6C(=O)[C@@H](NC(=O)OC)C(C)C)[nH]c5c4)ccc2-3)[nH]1)C(C)C [Ledipasvir] 996
